molecular target: HIV-1 pseudovirus 263-8 (HIV-1); assay: cell-based or functional assay
Each record here notes measured IC50 (neutralization in TZM.bl cells).
reported property: IC50 (neutralization in TZM.bl cells) (µg/mL)

{"binder": "MS-80 (antibody, V domains shown) VH: QVQLVQSGPEVRKPGTSVKVSCKAPGNTLKTYDLHWVRSVPGQGLQWMGWISHEGDKKVIVERFKAKVTIDRDRSTNTAYLQLSGLTSGDTAVYYCAKGSKHRLRDYALYDDDGALNWAVDVDYLSNLEFWGQGTAVTVSS VL: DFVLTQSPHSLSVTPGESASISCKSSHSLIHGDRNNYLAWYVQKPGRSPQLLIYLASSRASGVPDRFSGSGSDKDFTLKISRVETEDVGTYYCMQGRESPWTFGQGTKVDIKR", "number": 0.033}
{"binder": "MS-72 (antibody, V domains shown) VH: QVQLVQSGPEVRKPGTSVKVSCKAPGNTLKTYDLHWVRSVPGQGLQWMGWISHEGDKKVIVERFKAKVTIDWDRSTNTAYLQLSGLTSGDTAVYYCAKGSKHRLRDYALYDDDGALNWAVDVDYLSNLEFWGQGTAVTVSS VL: DFVLTQSPHSLSVTPGESASISCKSSHSLIHGDRNNYLAWYVQKPGRSPQLLIYLASSRASGVPDRFSGSGSDTDFTLKISRVETEDVGTYYCMQGRESPWTFGQGTKVDIKR", "number": 0.02}
{"binder": "MS-74 (antibody, V domains shown) VH: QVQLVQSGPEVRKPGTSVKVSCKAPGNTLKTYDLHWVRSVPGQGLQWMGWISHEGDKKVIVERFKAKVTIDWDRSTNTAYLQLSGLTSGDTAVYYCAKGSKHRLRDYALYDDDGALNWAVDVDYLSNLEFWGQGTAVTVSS VL: DFVLTQSPHSLSVTPGESASISCKSSHSLIHGDRNNYLAWYVQKPGRSPQLLIYLASSRASGVPDRFSGSGSDKDFTLKISRVETEDVGVYYCMQGRESPWTFGQGTKVDIKR", "number": 0.013}
